Target: T1, human His6-GITR (human, UniProt Q9Y5U5 26-162)
T1 construct: His6-tagged recombinant protein; also called hGITR-His; human GITR-His
T1 sequence: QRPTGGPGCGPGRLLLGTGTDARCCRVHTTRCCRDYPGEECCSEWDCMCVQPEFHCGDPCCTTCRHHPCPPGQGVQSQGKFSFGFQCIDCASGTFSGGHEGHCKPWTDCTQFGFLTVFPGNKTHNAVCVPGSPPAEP
Experiment: CARTERRA LSA, scFv periplasmic extract
Endpoint name: Kd (nM)
Report the value in nM with no unit label.

Query block: Provide Kd value for the following binder: GITR-Mab-5 scFv (scFv, V domains shown, scFv in periplasmic extract, V5 tag) VH: EVQLLESGGGLVQPGGSLRLSCAASGFTFDAYAMHWVRQAPGKGLEWVSAIGTGGDTYYADSVKGRFTISRDNSKNTLYLQMNSLRAEDTAVYYCARDLYGSGSPQYYYYYGMDVWGQGTTVTVSS VL: DIQMTQSPSSLSASVGDRVTITCRASQGIKNDLGWYQQKPGKAPKLLIYAASSLQSGVPSRFSGSGSGTDFTLTISSLQPEDFATYYCQQSYSVPFTFGQGTKVEIK
Result block: 8.3

Query block: Provide Kd value for the following binder: GITR-Mab-9 scFv (scFv, V domains shown, scFv in periplasmic extract, V5 tag) VH: QVQLVQSGAEVKKPGASVKVSCKASGHTFTSQYMHWVRQAPGQGLEWVGVINPNDGSTSYAQKFQGRVTMTRDTSTSTVYMELSSLRSEDTAVYYCARDGAYYYDSSGYYRSSNFDYWGQGTLVTVSS VL: DIQMTQSPSSLSASVGDRVTITCQASQDIGNYLNWYQQKPGKAPKLLIYGASNLETGVPSRFSGSGSGTDFTLTISSLQPEDFATYYCQQGYSFPLTFGQGTKVEIK
Result block: 3.3

Query block: Provide Kd value for the following binder: GITR-Mab-20 scFv (scFv, V domains shown, scFv in periplasmic extract, V5 tag) VH: QVQLVQSGAEVKKPGASVKVSCKASGGTFSNYAISWVRQAPGQGLEWMGVINPRGGSTTYAQKFQGRVTMTRDTSTSTVYMELSSLRSEDTAVYYCARDYSIPYYGMDVWGQGTTVTVSS VL: DIQMTQSPSSLSASVGDRVTITCRASQSISTYLNWYQQKPGKAPKLLIYDASNLETGVPSRFSGSGSGTDFTLTISSLQPEDFATYYCQQSYSTPLTFGGGTKVEIK
Result block: 7.8

From here, focus on the item given below.
Query block: Provide Kd value for the following binder: GITR-Mab-19 scFv (scFv, V domains shown, scFv in periplasmic extract, V5 tag) VH: QVQLVQSGAEVKKPGASVKVSCKASGYTFTSYDINWVRQAPGQGLEWVGIINPSGGSTSYAQKFQGRVTMTRDTSTSTVYMELSSLRSEDTAVYYCARASSGGYYYYYGMDVWGQGTTVTVSS VL: DIQMTQSPSSLSASVGDRVTITCRASQDIVNWLAWYQQKPGKAPKLLIYAASSLQSGVPSRFSGSGSGTDFTLTISSLQPEDFATYYCQQYYSYPLTFGQGTRLEIK
Result block: 10.8
